# SYSTEM TESTED: Glycogen phosphorylase, liver form (Homo sapiens, UniProt P06737)
# Sequence (P06737 whole entry): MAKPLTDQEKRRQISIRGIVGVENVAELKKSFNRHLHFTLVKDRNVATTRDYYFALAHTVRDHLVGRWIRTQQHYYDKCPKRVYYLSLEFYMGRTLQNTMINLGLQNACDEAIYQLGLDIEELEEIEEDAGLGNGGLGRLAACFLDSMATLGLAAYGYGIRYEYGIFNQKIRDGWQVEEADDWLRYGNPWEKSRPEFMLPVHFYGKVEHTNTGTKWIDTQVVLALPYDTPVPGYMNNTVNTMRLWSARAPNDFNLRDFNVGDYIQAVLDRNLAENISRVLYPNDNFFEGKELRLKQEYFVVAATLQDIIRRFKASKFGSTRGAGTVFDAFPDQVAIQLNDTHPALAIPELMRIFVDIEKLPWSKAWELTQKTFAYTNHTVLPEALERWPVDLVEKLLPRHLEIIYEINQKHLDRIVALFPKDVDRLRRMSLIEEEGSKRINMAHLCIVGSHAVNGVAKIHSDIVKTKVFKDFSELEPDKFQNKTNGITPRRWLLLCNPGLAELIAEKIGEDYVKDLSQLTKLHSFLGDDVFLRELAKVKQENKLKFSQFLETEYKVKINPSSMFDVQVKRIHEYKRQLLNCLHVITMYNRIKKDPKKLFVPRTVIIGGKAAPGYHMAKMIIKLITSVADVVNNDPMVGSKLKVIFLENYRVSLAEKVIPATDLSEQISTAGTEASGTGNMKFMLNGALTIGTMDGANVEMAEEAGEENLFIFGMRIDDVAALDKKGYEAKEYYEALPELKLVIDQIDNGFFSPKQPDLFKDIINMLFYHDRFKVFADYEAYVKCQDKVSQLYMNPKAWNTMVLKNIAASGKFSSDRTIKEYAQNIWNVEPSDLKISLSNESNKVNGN
# ASSAY DETAILS: Inhibition of human liver glycogen phosphorylase a in presence of glucose
pIC50: −log10 of the molar value.
ASSAY ENDPOINT: pIC50

These solved cases illustrate the format of a correct answer.
| SMILES RECORD | QUANTITATIVE RESULT |
| --- | --- |
| O=C(/C=C/c1ccc(Cl)c(Cl)c1)NCC[S+]([O-])CCNC(=O)/C=C/c1ccc(Cl)c(Cl)c1 | 7.59 |
| O=C(/C=C/c1ccc(Cl)c(Cl)c1)NCCCCCNC(=O)/C=C/c1ccc(Cl)c(Cl)c1 | 7.64 |

1: O=C(/C=C/c1ccc(Cl)c(Cl)c1)NCCOCCNC(=O)/C=C/c1ccc(Cl)c(Cl)c1
2: O=C(/C=C/c1ccc(Cl)c(Cl)c1)NCCCCNC(=O)/C=C/c1ccc(Cl)c(Cl)c1
3: O=C(/C=C/c1ccc(Cl)c(Cl)c1)NCCSCCNC(=O)/C=C/c1ccc(Cl)c(Cl)c1
In: Descending sort on pIC50 required. Sort the labels as requested; that list is your answer.
Out: 3, 1, 2
(3: 7.92, 1: 7.59, 2: 7.37)
